Values were extracted from ChEMBL document CHEMBL4888484.

Give % Inhibition for every item shown.
test system: Plasmodium falciparum; assay: Confirmatory screen in NF54 pLDH assay, in single point, at 2uM, 72h; format: functional, Erythrocyte; conditions: timepoint 72 hour
About 410 (8.5%) of roughly 4,800 compounds showed an effect of 50% or more. For the sample, strong results were picked, then their nearest neighbours and some compounds at random.
Answers are plain numbers, in %.

[
  {
    "COMPOUND": "COc1cccc(-c2cc(O)cc(CC[C@H]3CCCCN3)c2)n1",
    "% Inhibition (%)": 89
  },
  {
    "COMPOUND": "CN1CCN(c2nc(-c3cccc(C(F)(F)F)c3)nc3c2cnn3Cc2ccccc2)CC1",
    "% Inhibition (%)": -3
  },
  {
    "COMPOUND": "COC1CCC(CC(=O)N[C@H]2CC(=O)N(c3ccccc3)C2)CC1 (stereo not given in full)",
    "% Inhibition (%)": 10
  },
  {
    "COMPOUND": "COc1cccc(-c2nn(-c3nc(-c4ccccc4)cc(C(F)(F)F)n3)c(-c3cccc(OC)c3)c2Cl)c1",
    "% Inhibition (%)": 35
  },
  {
    "COMPOUND": "Cc1ccc(C(=O)N[C@@H](C)CCc2ccccc2)cc1S(=O)(=O)N1CCN(C)CC1",
    "% Inhibition (%)": -22
  }
]

Batch request: % Inhibition per item, same order as input.
1. c1ccc(N2CCN(C3CCN(Cc4ccncc4)CC3)CC2)cc1
2. CN(Cc1nnc2n1CCC2)C(=O)Cc1cccs1
3. CC(=O)N1CC[C@H](CC(=O)N(C)Cc2ccccc2)C1
4. Cc1c(-c2nn(-c3nc(C4CC4)cc(C(F)(F)F)n3)c(-c3cnn(C)c3C)c2Cl)cnn1C
5. CN1CCC(n2ncc3[nH]c(-c4ccc(C(F)(F)F)cc4)nc32)CC1

[-2, 9, 0, 14, 99]
